# MEASURED ON: human RXFP1 (Homo sapiens, UniProt Q9HBX9)
# Sequence (Q9HBX9 whole entry): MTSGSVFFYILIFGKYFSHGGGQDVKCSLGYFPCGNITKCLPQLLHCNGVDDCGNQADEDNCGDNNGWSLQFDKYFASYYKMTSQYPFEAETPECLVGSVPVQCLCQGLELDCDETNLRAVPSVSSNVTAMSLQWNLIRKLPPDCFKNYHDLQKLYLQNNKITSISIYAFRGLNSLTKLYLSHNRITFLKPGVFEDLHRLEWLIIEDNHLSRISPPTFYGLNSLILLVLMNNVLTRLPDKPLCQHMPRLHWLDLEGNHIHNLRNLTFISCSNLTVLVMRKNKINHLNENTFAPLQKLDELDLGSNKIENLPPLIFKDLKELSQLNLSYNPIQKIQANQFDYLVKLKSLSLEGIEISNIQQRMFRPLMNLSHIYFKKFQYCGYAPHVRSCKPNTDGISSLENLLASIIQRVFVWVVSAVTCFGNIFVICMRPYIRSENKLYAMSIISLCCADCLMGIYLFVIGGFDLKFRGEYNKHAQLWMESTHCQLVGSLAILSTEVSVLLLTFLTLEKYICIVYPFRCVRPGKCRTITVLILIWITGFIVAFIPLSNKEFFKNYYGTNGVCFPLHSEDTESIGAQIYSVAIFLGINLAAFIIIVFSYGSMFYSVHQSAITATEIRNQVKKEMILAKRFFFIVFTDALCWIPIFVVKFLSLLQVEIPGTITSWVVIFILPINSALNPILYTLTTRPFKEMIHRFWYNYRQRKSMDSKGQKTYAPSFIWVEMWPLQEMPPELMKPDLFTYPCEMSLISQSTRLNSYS
# ASSAY REMARKS: hRXFP1 HEK293 cAMP assay (HTRF)
# TEST PARAMETERS: HEK293 cells stably expressing human RXFP1; 30 min at rt; intracellular cAMP by HTRF
Rule: EC50 below 700 nM gives Criterion met, anything at or above gives Criterion not met.

COc1ccc(C2CC2C(=O)N2CC(S(C)(=O)=O)C2)cc1C(=O)Nc1c(C(=O)Nc2ccc(F)c(C(F)(F)F)c2)sc2cc(C(F)(F)F)ccc12 (single isomer, unassigned) [Example 164]    Criterion not met
COc1ccc(C2CCCC(NC3COC3)C2)cc1C(=O)Nc1c(C(=O)Nc2ccc(F)c(C(F)(F)F)c2)sc2cc(C(F)(F)F)ccc12 (single isomer, unassigned) [Example 62]    Criterion not met
COc1ccc(N2CCC[C@@H](NC(=O)CN(C)C)C2)cc1C(=O)Nc1c(C(=O)Nc2ccc(F)c(C(F)(F)F)c2)sc2cc(C(F)(F)F)ccc12    Criterion not met
COc1ccc(C2CCCN(CCO)CC2)cc1C(=O)Nc1c(C(=O)Nc2ccc(F)c(C(F)(F)F)c2)sc2cc(C(F)(F)F)ccc12 (single isomer, unassigned) [Example 69]    Criterion not met
COc1ccc(C2CCCN(C(=O)CN(C)C)C2)cc1C(=O)Nc1c(C(=O)Nc2ccc(F)c(C(F)(F)F)c2)sc2cc(C(F)(F)F)ccc12 (centres unmarked) [Example 95]    Criterion not met
O=C(Nc1c(C(=O)Nc2ccc(F)c(C(F)(F)F)c2)sc2cc(C(F)(F)F)ccc12)c1cc(C2=NOC3COCC23)ccc1F (centres unmarked)    Criterion met
COc1ccc(C2CC2C(=O)O)cc1C(=O)Nc1c(C(=O)Nc2ccc(F)c(C(F)(F)F)c2)sc2cc(C(F)(F)F)ccc12 (single isomer, unassigned) [Example 47]    Criterion not met
COc1ccc(C2CC2C(=O)N2CC(OC)C2)cc1C(=O)Nc1c(C(=O)Nc2ccc(F)c(C(F)(F)F)c2)sc2cc(C(F)(F)F)ccc12 (centres unmarked) [Example 167]    Criterion met
COc1ccc(C2=NOC3(CCN(C(=O)C(C)(C)CO)CC3)C2)cc1C(=O)Nc1c(C(=O)Nc2ccc(F)c(C(F)(F)F)c2)sc2cc(C(F)(F)F)ccc12    Criterion not met
COc1ncc(C(=O)NCC2(S(C)(=O)=O)CC2)cc1C(=O)Nc1c(C(=O)Nc2ccc(F)c(C(F)(F)F)c2)sc2cc(C(F)(F)F)ccc12    Criterion met
COc1ccc(C2CCCN(C(=O)C(=O)O)C2)cc1C(=O)Nc1c(C(=O)Nc2ccc(F)c(C(F)(F)F)c2)sc2cc(C(F)(F)F)ccc12 (centres unmarked)    Criterion met
COc1ccc(C2=NOC3CC(NC(=O)CO)CC23)cc1C(=O)Nc1c(C(=O)Nc2ccc(F)c(C(F)(F)F)c2)sc2cc(C(F)(F)F)ccc12 (single isomer, unassigned) [Example 264]    Criterion not met
COc1ccc(-c2cc(CN(C)C)on2)cc1C(=O)Nc1c(C(=O)Nc2ccc(F)c(C(F)(F)F)c2)sc2cc(C(F)(F)F)ccc12    Criterion not met
COc1ccc(C2CCCN(C3COC3)C2)cc1C(=O)Nc1c(C(=O)Nc2ccc(F)c(C(F)(F)F)c2)sc2cc(C(F)(F)F)ccc12 (centres unmarked) [Example 97]    Criterion met
COc1ncc(N2CCS(=O)(=O)CC2)cc1C(=O)Nc1c(C(=O)Nc2ccc(F)c(C(F)(F)F)c2)sc2cc(C(F)(F)F)ccc12    Criterion not met
COc1ccc(S(=O)(=O)N2CCC[C@@H](N)C2)cc1C(=O)Nc1c(C(=O)Nc2ccc(F)c(C(F)(F)F)c2)sc2cc(C(F)(F)F)ccc12    Criterion not met
COc1ccc(C(=O)N2CCC(O)CC2)cc1C(=O)Nc1c(C(=O)Nc2ccc(F)c(C(F)(F)F)c2)sc2cc(Cl)ncc12    Criterion not met
COc1ccc(-c2cc(S(=O)(=O)NC(C)(C)C)ccc2F)cc1C(=O)Nc1c(C(=O)Nc2ccc(F)c(C(F)(F)F)c2)sc2cc(C(F)(F)F)ccc12    Criterion met
COc1ccc(-c2cc(C(=O)O)ccc2F)cc1C(=O)Nc1c(C(=O)Nc2ccc(F)c(C(F)(F)F)c2)sc2nc(C)ccc12    Criterion not met
COc1ccc(CNCC(C)(C)O)cc1C(=O)Nc1c(C(=O)Nc2ccc(F)c(C(F)(F)F)c2)sc2cc(C(F)(F)F)ccc12    Criterion not met
COC(=O)C(=O)N1CCCC(c2ccc(OC)c(C(=O)Nc3c(C(=O)Nc4ccc(F)c(C(F)(F)F)c4)sc4cc(C(F)(F)F)ccc34)c2)C1 (centres unmarked) [Example 94]    Criterion met
COc1ccc(C2CCN(C(=O)CC#N)C2)cc1C(=O)Nc1c(C(=O)Nc2ccc(F)c(C(F)(F)F)c2)sc2cc(C(F)(F)F)ccc12 (centres unmarked)    Criterion not met
COc1ccc(C2CCCNC2)cc1C(=O)Nc1c(C(=O)Nc2ccc(F)c(C(F)(F)F)c2)sc2cc(C(F)(F)F)ccc12 (single isomer, unassigned)    Criterion met

Just for reference, patent US20260265233A1 is where these values come from.
